- System: Mycobacterium tuberculosis
- protocolDescription: Substrate activity at Mycobacterium tuberculosis Ddn expressed in Escherichia coli BL21 (DE3) assessed as oxidation of F420H2 by measuring Km by spectrophotometric analysis
For each record, write down the corresponding Km.
Number first, unit second: that is the form wanted.

Some entries whose results are on file:
O=c1c2nc([N+](=O)[O-])cn2ccn1Cc1cncc(-c2cccc(OC(F)(F)F)c2)c1 | 4.3 µM
O=c1c2nc([N+](=O)[O-])cn2ccn1Cc1ccc(N2CCCCC2)cc1 | 2.2 µM
O=c1c2nc([N+](=O)[O-])cn2ccn1Cc1ccc(-c2cccc(OC(F)(F)F)c2)nc1 | 5 µM

Each of the following entries comes with a recorded value; kindly state Km for each.
1. Cc1c(C)n2cc([N+](=O)[O-])nc2c(=O)n1Cc1ccc(OC(F)(F)F)cc1
2. O=C(NCc1ccc(OC(F)(F)F)cc1)c1ncc([N+](=O)[O-])[nH]1
3. O=[N+]([O-])c1cn2c(n1)OC[C@@H](OCc1ccc(OC(F)(F)F)cc1)C2
4. Cc1ccc(Cn2ccn3cc([N+](=O)[O-])nc3c2=O)cc1
5. O=c1c2nc([N+](=O)[O-])cn2ccn1Cc1cncc(-c2ccc(OC(F)(F)F)cc2)c1
6. O=c1[nH]c(-c2ccccc2)cn2cc([N+](=O)[O-])nc12

1: 28 µM; 2: 31 µM; 3: 7.3 µM; 4: 2.5 µM; 5: 2.6 µM; 6: 164 µM
